- assay_target: TJP2_1, Q9UDY2
- Sequence (Q9UDY2 24-128): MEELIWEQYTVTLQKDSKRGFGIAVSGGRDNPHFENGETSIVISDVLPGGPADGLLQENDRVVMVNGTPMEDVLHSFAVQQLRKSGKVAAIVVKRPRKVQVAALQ
- assay_procedure: holdup assay
- Set-up: key: below the threshold = too weak to quantify, mostly under pKd 3.1 to 4
- condition_details: plain residues with an end cap or a label only (N-terminal biotin on a linker: ttds)

binder	pKd
STLTIFETAL [ABCC4, O15439]	below the threshold
TVASEKESVM [SLC1A5, Q15758]	below the threshold
IDNDTESTAL [ARHGAP17, Q68EM7]	below the threshold
VLRLQSETSV [VANGL1, Q8TAA9]	below the threshold
SRPQRTQTQV [HPV67-E6, A4U7F2]	3.86
GQDSREETQL [KCNT2, Q6UVM3]	below the threshold
RSLEEEESQL [GRASP, Q7Z6J2]	3.65
QSARYRDTEL [TJP2, Q9UDY2]	below the threshold
